- Tested on: SEM cells
- RUN DESCRIPTION: cell viability relative to DMSO control; higher = less cytotoxic
- EXPERIMENTAL PARAMETERS: RPMI 5 mM glucose + 10% FBS; 48 h; 0.0211 µM
PROPERTY: cell viability (%)
Could you give me the number in %? Just the number is fine.

Examples with answers:
1. Cc1cccc(-c2nn(C(=S)Nc3ccccc3)cc2-c2ccnc3ccccc23)n1 = 131
2. CN(C)C(=O)c1ccc([S+](=O)([O-])c2ccc(NC(=O)[C@@](C)(O)C(F)(F)F)c(Cl)c2)cc1 = 109
3. O=C(/C=C/c1c(C(=O)[O-])[nH]c2cc(Cl)cc(Cl)c12)Nc1ccccc1 = 102
4. CC(C)C[C@H](NC(=O)CNC(=O)c1cc(Cl)ccc1Cl)B1OC(=O)CC(CC(=O)O)(C(=O)O)O1 (some centres not stated) = 125
5. Cc1c(Cn2c(C)nc3c(C(=O)O)cc(N4CCOCC4)cc32)cccc1C(F)(F)F = 106

Indicate its recorded cell viability; the compound in question is `CC1(C)CCC(=C(CN2CCN(CC2)C3=CC=C(C=C3)C(=O)N[S+]([O-])(=O)C4=CC(=C(N[C@H](CCN5CCOCC5)CSC6=CC=CC=C6)C=C4)[S+]([O-])(=O)C(F)(F)F)\C1)/C7=CC=C(Cl)C=C7`
82.8

Indicate its recorded cell viability; the compound in question is `Oc1ccc(C2CCN(c3ccnc4ccccc34)CC2)cc1O`
94.6

* * *

- Tested on: P12-Ichikawa
- RUN DESCRIPTION: cell viability relative to DMSO control; higher = less cytotoxic
- EXPERIMENTAL PARAMETERS: RPMI 5 mM glucose + 10% FBS; 48 h; 0.569 µM
cell viability overview
Form field: result (number plus unit)

Examples with answers:
1. COc1cc(O)c2c(c1)C1OC1C[C@H](O)[C@H](O)C(=O)/C=C\C[C@H](C)OC2=O (some centres not stated) = 116%
2. CC(C)[C@@H](C[S+](=O)([O-])C(C)C)N1C(=O)[C@@](C)(CC(=O)O)C[C@H](c2cccc(Cl)c2)[C@H]1c1ccc(Cl)cc1 = 63.3%

Indicate its recorded cell viability; the molecule in question is `OC(=O)\C1=C\N(C2=CC=C(F)C=C2)C3=C(C=C(F)C(=C3)N4CCNCC4)C1=O`
112%

Indicate its recorded cell viability; the molecule in question is `COc1cc(Nc2ncc(F)c(Nc3ccc4c(n3)NC(=O)C(C)(C)O4)n2)cc(OC)c1OC`
113%

Indicate its recorded cell viability; the molecule in question is `CCOC(=O)[C@H](CCc1ccccc1)N[C@@H](C)C(=O)N1CCC[C@H]1C(=O)O`
108%

Indicate its recorded cell viability; the molecule in question is `OC[C@H]1O[C@H]([C@@H](F)[C@@H]1O)N2\C=C/C(=O)NC2=O`
106%

Indicate its recorded cell viability; the molecule in question is CCOc1cc(N)c(Cl)cc1C(=O)NCC1CN(Cc2ccc(F)cc2)CCO1 (configuration not stated)
115%

* * *

cell viability overview
- Tested on: NOMO1
- RUN DESCRIPTION: cell viability relative to DMSO control; higher = less cytotoxic
- EXPERIMENTAL PARAMETERS: RPMI 5 mM glucose + 10% FBS; 48 h; 0.0211 µM
Could you give me the number in %? Just the number is fine.

Examples with answers:
1. OC[C@H](Cc1ccccc1)Nc1nc(Oc2ccc3c(c2)CCC3)nc2c1ncn2Cc1ccc(-c2ccccc2)cc1 = 96.4
2. Cc1cccc(-c2nn(C(=S)Nc3ccccc3)cc2-c2ccnc3ccccc23)n1 = 122
3. c1cc(CN2CCCNCCNCCCNCC2)ccc1CN1CCCNCCNCCCNCC1 = 18.6

State cell viability on NOMO1. Entry: `CCC(=O)OCC(=O)[C@@]1(OC(=O)CC)[C@@H](C)C[C@H]2[C@@H]3CCC4=CC(=O)C=C[C@]4(C)[C@@]3(F)[C@@H](O)C[C@@]21C`
112

State cell viability on NOMO1. Entry: `COc1cc(Nc2ncc(F)c(Nc3ccc4c(n3)NC(=O)C(C)(C)O4)n2)cc(OC)c1OC`
118
